Attribution: patent US11566007B2

Reported IC50 values for a set of compounds
# EXPERIMENTAL SYSTEM: K-Ras G12C (Homo sapiens (Human), UniProt P01116+P62937, G12C)
# Sequence (P01116-2 other isoform, or with tags, fused parts or gaps G12C): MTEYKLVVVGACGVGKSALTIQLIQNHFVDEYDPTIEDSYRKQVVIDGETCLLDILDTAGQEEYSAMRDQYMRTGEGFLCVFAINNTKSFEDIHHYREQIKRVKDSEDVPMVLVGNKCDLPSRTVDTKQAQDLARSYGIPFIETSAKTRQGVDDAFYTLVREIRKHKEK
# Sequence (P62937 whole entry): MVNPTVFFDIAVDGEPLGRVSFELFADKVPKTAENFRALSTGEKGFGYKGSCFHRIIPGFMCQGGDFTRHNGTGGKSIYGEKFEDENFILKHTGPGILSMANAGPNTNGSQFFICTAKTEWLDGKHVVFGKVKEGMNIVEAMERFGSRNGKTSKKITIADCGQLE
# ASSAY TEXT: Ras-Raf (BRAF RBD) disruption / FRET / MOA assay, KRAS G12C
# Assay type: biochemical
# CONDITIONS USED: KRAS G12C; Ras-Raf disruption/FRET/MOA assay; read-out: IC50* KRAS G12C FRET data

COMPOUND	IC50
CCn1c(-c2cccnc2[C@H](C)OC)c2c3cc(ccc31)-c1csc(n1)C[C@H](NC(=O)[C@H](C(C)C)N(C)C(=O)[C@H]1CCC(C(=O)/C=C/CN(C)C)C1)C(=O)N1CCC[C@H](N1)C(=O)OCC(C)(C)C2 (some centres unmarked)	100 to 1000 nM
CCn1c(-c2cccnc2[C@H](C)OC)c2c3cc(ccc31)-c1cc(O)cc(c1)C[C@H](NC(=O)[C@H](C(C)C)N1CCC3(CCN(C(=O)/C=C/CN(C)C)CC3)C1=O)C(=O)N1CCC[C@H](N1)C(=O)OCC(C)(C)C2 (atropisomer, axis not shown)	10 to 100 nM
CCn1c(-c2cccnc2[C@H](C)OC)c2c3cc(ccc31)-c1cccc(c1)C[C@H](NC(=O)CCOC1CN(C(=O)C#CC(C)(C)N(C)C)C1)C(=O)N1CCC[C@H](N1)C(=O)OCC(C)(C)C2 (atropisomer, axis not shown)	10 to 100 nM
C=CC(=O)N1CC[C@@H](C(=O)N(C)[C@H](C(=O)N[C@H]2Cc3cccc(c3)-c3ccc4c(c3)c(c(-c3cccnc3[C@H](C)OC)n4CC)CC(C)(C)COC(=O)[C@@H]3CCCN(N3)C2=O)C(C)C)C1 (atropisomer, axis not shown)	100 to 1000 nM
C=CC(=O)N1CCO[C@@]2(CCN(C(=O)N(C)[C@H](C(=O)N[C@H]3Cc4nc(cs4)-c4ccc5c(c4)c(c(-c4cccnc4[C@H](C)OC)n5CC(F)(F)F)CC(C)(C)COC(=O)[C@@H]4CCCN(N4)C3=O)C(C)C)C2)C1 (atropisomer, axis not shown)	10 to 100 nM
C=CC(=O)Nc1cnc(OC[C@H](C(=O)N[C@H]2Cc3cccc(c3)-c3ccc4c(c3)c(c(-c3cccnc3[C@H](C)OC)n4CC)CC(C)(C)COC(=O)[C@@H]3CCCN(N3)C2=O)C(C)C)n1C (atropisomer, axis not shown)	< 10 nM
C/C=C(\C#N)C(=O)N1CC[C@H](C(=O)N(C)[C@H](C(=O)N[C@H]2Cc3cc(O)cc(c3)-c3ccc4c(c3)c(c(-c3cccnc3COC)n4CC)CC(C)(C)COC(=O)[C@@H]3CCCN(N3)C2=O)C(C)C)C1	10 to 100 nM
C=CC(=O)N1CCO[C@@H]2CN(C(=O)N(C)[C@H](C(=O)N[C@H]3Cc4nc(cs4)-c4ccc5c(c4)c(c(-c4cccnc4[C@H](C)OC)n5CC)CC(C)(C)COC(=O)[C@@H]4CCCN(N4)C3=O)C(C)C)C[C@H]21 (atropisomer, axis not shown)	< 10 nM

====

# EXPERIMENTAL SYSTEM: KRAS WT (Homo sapiens (Human), UniProt P01116+P62937)
# Sequence (P01116-2 other isoform, or with tags, fused parts or gaps): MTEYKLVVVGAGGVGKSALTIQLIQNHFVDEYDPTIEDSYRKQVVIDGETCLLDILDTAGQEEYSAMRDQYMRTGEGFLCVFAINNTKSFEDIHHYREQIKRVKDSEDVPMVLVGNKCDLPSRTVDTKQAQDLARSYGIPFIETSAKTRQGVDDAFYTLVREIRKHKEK
# Sequence (P62937 whole entry): as the sequence (P62937 whole entry) above
# ASSAY TEXT: Ras-Raf (BRAF RBD) disruption / FRET / MOA assay, KRAS WT
# Assay type: biochemical
# CONDITIONS USED: read-out: IC50* KRAS WT FRET data
pIC50: −log10 of the molar value.
Reported pIC50 values for a set of compounds

COMPOUND	pIC50
CCn1c(-c2cccnc2[C@H](C)OC)c2c3cc(ccc31)-c1cccc(c1)CC(NC(=O)[C@H](C(C)C)N1CC[C@]3(CCN(C(=O)C#C[C@@H]4COCCN4C4COC4)C3)C1=O)C(=O)N1CCC[C@H](N1)C(=O)OCC(C)(C)C2 (some centres unmarked)	< 5.00
C=CC(=O)N1CCC2(C1)CN(C(=O)N(C)[C@H](C(=O)N[C@H]1Cc3nc(cs3)-c3ccc4c(c3)c(c(-c3cccnc3[C@H](C)OC)n4CC(F)(F)F)CC(C)(C)COC(=O)[C@@H]3CCCN(N3)C1=O)C(C)C)C2	7.00 to 8.00

====

# EXPERIMENTAL SYSTEM: NRAS Q61K (Homo sapiens (Human), UniProt P01111+P62937, Q61K)
# Sequence (P01111 whole entry Q61K): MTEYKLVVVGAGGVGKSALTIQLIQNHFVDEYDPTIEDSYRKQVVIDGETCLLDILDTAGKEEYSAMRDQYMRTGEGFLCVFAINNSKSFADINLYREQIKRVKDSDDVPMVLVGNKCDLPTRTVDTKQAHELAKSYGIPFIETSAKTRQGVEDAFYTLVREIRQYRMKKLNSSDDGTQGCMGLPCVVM
# Sequence (P62937 whole entry): as the sequence (P62937 whole entry) above
# ASSAY TEXT: Ras-Raf (BRAF RBD) disruption / FRET / MOA assay, NRAS Q61K
# Type: biochemical
# CONDITIONS USED: NRAS Q61K; Ras-Raf disruption/FRET/MOA assay; read-out: IC50* NRAS Q61K FRET data

MOLECULE	EXPERIMENTAL SYSTEM	IC50
C=CC(=O)N1CC[C@H](C(=O)N(C)[C@H](C(=O)N[C@H]2Cc3cc(O)cc(c3)-c3ccc4c(c3)c(c(-c3cnc(N(C)C)s3)n4CC)CC(C)(C)COC(=O)[C@@H]3CCCN(N3)C2=O)C(C)C)C1	NRAS Q61K (Homo sapiens (Human), UniProt P01111+P62937, Q61K)	> 10000 nM
C=CC(=O)N(C)CCN1CCN(C(=O)N(C)[C@H](C(=O)N[C@H]2Cc3cccc(c3)-c3ccc4c(c3)c(c(-c3cccnc3[C@H](C)OC)n4CC)CC(C)(C)COC(=O)[C@@H]3CCCN(N3)C2=O)C(C)C)C[C@H]1C (atropisomer, axis not shown)	NRAS Q61K (Homo sapiens (Human), UniProt P01111+P62937, Q61K)	1000 to 10000 nM
C=CC(=O)N1CC[C@H](C(=O)N(C)[C@H](C(=O)N[C@H]2Cc3cc(F)cc(c3)-c3ccc4c(c3)c(c(-c3cccnc3[C@H](C)OC)n4CC)CC(C)(C)COC(=O)[C@@H]3CCCN(N3)C2=O)C(C)C)C1 (atropisomer, axis not shown)	NRAS Q61K (Homo sapiens (Human), UniProt P01111+P62937, Q61K)	1000 to 10000 nM
C=CC(=O)N1CCCC2(CCN(C(=O)N(C)[C@H](C(=O)N[C@H]3Cc4nc(cs4)-c4ccc5c(c4)c(c(-c4cccnc4[C@H](C)OC)n5CC)CC(C)(C)COC(=O)[C@@H]4CCCN(N4)C3=O)C(C)C)CC2)C1 (atropisomer, axis not shown)	NRAS Q61K (Homo sapiens (Human), UniProt P01111+P62937, Q61K)	100 to 1000 nM
CCn1c(-c2cccnc2[C@H](C)OC)c2c3cc(ccc31)-c1cccc(c1)C[C@H](NC(=O)[C@H](C(C)C)N1CC[C@]3(CCN(C(=O)C#C[C@@H]4COCCN4C)C3)C1=O)C(=O)N1CCC[C@H](N1)C(=O)OCC(C)(C)C2 (atropisomer, axis not shown)	NRAS Q61K (Homo sapiens (Human), UniProt P01111+P62937, Q61K)	> 10000 nM
CCn1c(-c2cccnc2[C@H](C)OC)c2c3cc(ccc31)-c1csc(n1)C[C@H](NC(=O)[C@H](C(C)C)N(C)C(=O)N1C[C@@H]3CN(C(=O)C#CC(C)(C)N(C)C)CC[C@@H]31)C(=O)N1CCC[C@H](N1)C(=O)OCC(C)(C)C2 (atropisomer, axis not shown)	NRAS Q61K (Homo sapiens (Human), UniProt P01111+P62937, Q61K)	100 to 1000 nM
C=CC(=O)N1CCO[C@H]2CCN(C(=O)N(C)[C@H](C(=O)N[C@H]3Cc4nc(cs4)-c4ccc5c(c4)c(c(-c4cccnc4[C@H](C)OC)n5CC)CC(C)(C)COC(=O)[C@@H]4CCCN(N4)C3=O)C(C)C)C[C@@H]21 (atropisomer, axis not shown)	NRAS Q61K (Homo sapiens (Human), UniProt P01111+P62937, Q61K)	10 to 100 nM
C=CC(=O)N(C)CC1CN(C(=O)N(C)[C@H](C(=O)N[C@H]2Cc3nc(cs3)-c3ccc4c(c3)c(c(-c3cccnc3[C@H](C)OC)n4CC)CC(C)(C)COC(=O)[C@@H]3CCCN(N3)C2=O)C(C)C)C1 (atropisomer, axis not shown)	NRAS Q61K (Homo sapiens (Human), UniProt P01111+P62937, Q61K)	10 to 100 nM

====

# EXPERIMENTAL SYSTEM: NRAS WT (Homo sapiens (Human), UniProt P01111+P62937)
# Sequence (P01111 whole entry): as the sequence (P01111 whole entry Q61K) above, with K61Q counted along it
# Sequence (P62937 whole entry): as the sequence (P62937 whole entry) above
# ASSAY TEXT: Ras-Raf (BRAF RBD) disruption / FRET / MOA assay, NRAS WT
# Type: biochemical
# CONDITIONS USED: read-out: IC50* NRAS WT FRET data
PROPERTY MEASURED: IC50

COMPOUND	EXPERIMENTAL SYSTEM	REPORTED RESULT
C=CC(=O)N1CC[C@H](C(=O)N2CCCCC[C@H]2C(=O)N[C@H]2Cc3cccc(c3)-c3ccc4c(c3)c(c(-c3cccnc3[C@H](C)OC)n4CC)CC(C)(C)COC(=O)[C@@H]3CCCN(N3)C2=O)C1 (atropisomer, axis not shown) [Example A496]	NRAS WT (Homo sapiens (Human), UniProt P01111+P62937)	1000 to 10000 nM
CCn1c(-c2cccnc2[C@H](C)OC)c2c3cc(ccc31)-c1cccc(c1)C[C@H](NC(=O)[C@H](C(C)C)N1CC[C@@]3(CCN(C(=O)C#C[C@H]4COCCN4C)C3)C1=O)C(=O)N1CCC[C@H](N1)C(=O)OCC(C)(C)C2 (atropisomer, axis not shown) [Example A551]	NRAS WT (Homo sapiens (Human), UniProt P01111+P62937)	1000 to 10000 nM
CCn1c(-c2cccnc2[C@H](C)OC)c2c3cc(ccc31)-c1cccc(c1)C[C@H](NC(=O)[C@H](C(C)C)N(C)C(=O)C1(F)CCN(C(=O)/C=C/CN(C)C)CC1)C(=O)N1CCC[C@H](N1)C(=O)OCC(C)(C)C2 (atropisomer, axis not shown) [Example A685]	NRAS WT (Homo sapiens (Human), UniProt P01111+P62937)	100 to 1000 nM
C=CC(=O)N1CCN(C(=O)N(C)[C@H](C(=O)N[C@H]2Cc3nc(cs3)-c3ccc4c(c3)c(c(-c3cccnc3[C@H](C)OC)n4CC(F)(F)F)CC(C)(C)COC(=O)[C@@H]3CCCN(N3)C2=O)C(C)C)CC12CC2 (atropisomer, axis not shown) [Example A679]	NRAS WT (Homo sapiens (Human), UniProt P01111+P62937)	10 to 100 nM
